# targetUnderTest: purified 5-LO (Homo sapiens, UniProt P09917)
# Sequence (P09917 whole entry): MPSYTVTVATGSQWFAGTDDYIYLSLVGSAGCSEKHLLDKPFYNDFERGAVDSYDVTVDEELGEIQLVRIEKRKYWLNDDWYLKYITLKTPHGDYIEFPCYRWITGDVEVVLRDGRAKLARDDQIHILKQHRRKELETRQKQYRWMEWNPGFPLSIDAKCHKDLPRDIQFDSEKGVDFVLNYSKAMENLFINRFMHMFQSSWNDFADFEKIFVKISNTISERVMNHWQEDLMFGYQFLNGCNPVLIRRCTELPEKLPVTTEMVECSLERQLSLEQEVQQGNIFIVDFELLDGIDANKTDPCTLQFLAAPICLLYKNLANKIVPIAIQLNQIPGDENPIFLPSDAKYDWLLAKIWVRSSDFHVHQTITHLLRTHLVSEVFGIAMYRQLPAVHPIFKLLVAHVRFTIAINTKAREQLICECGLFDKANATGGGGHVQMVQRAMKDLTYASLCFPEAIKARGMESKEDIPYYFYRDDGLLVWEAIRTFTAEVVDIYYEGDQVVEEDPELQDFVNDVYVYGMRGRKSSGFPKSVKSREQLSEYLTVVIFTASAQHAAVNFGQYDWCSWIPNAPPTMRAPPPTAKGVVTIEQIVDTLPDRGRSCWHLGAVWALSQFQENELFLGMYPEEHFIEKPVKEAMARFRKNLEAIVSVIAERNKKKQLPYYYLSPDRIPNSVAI
# methodSummary: Purified / human recombinant 5-LO activity (cell-free)
# Assay type: biochemical
# conditionsUsed: human recombinant 5-LO, at 3, 10 and 30 µM substrate AA (Figure 5); read-out: mean IC50 activity of isolated 5-LO
recordedMetric: IC50 (nM)
# value in nM; strip the unit string

Field request: IC50 | item: O=C(O)c1noc(-c2ccc(OCc3ccc4ccccc4n3)cc2)c1-c1ccc(Cl)cc1
2000

====

# targetUnderTest: UniProtKB P09917
# methodSummary: Purified / human recombinant 5-LO activity (cell-free)
# Type: biochemical
# conditionsUsed: purified 5-LO under cell free conditions; mean ± SE, n = 3-4; read-out: Inhibition of purified 5-LO activity IC50 (µM) cell-free
# Experimental: Cell based and cell-free assays carried out in biological studies, immunofluorescence microscopy analysis and zymosan-induced peritonitis in mice are performed as described hereinabove (Pegola, C. and et al., British J. Pharmacology, 2014, D01:10.1111/bph.12625). […] Resulting 5-LO mediated products are extracted and analysed by the known method of high pressure liquid chromatography (HPLC) (Pergola, C. Proc Natl. Acad. Sci. U.S.A. 2008, 105, 19881). […]
Binarize IC50 at 1 µM; below is met, at or above is not met.

Some solved cases for reference:
compound	targetUnderTest	answerLabel
O=C(O)c1noc(-c2ccc(OCc3ccccc3C(F)(F)F)cc2)c1-c1ccc(Cl)cc1	UniProtKB P09917	not met
Cc1ccccc1COc1ccc(-c2onc(C(=O)O)c2-c2cccc(Cl)c2)cc1 [Compound 10aj]	UniProtKB P09917	met
N#Cc1cccc(COc2ccc(-c3onc(C(=O)O)c3-c3ccc(Cl)cc3)cc2)c1	UniProtKB P09917	not met

Is IC50 strictly under 1 µM for the entry Cc1ccc(COc2ccc(-c3onc(C(=O)O)c3-c3ccc(Cl)cc3)c(C)c2)cc1 ?
not met

Just wondering, is IC50 of Cc1ccccc1COc1ccc(-c2onc(C(=O)O)c2-c2ccc(Cl)cc2)cc1 below 1 µM?
met

Quick check: IC50 of Cc1ccc(COc2ccc(-c3onc(C(=O)O)c3-c3ccc(Cl)cc3)cc2)cc1 under 1 µM?
not met

Hi there! Is IC50 for Cc1cc(OCc2cccc(F)c2)ccc1-c1onc(C(=O)O)c1-c1cccc(Cl)c1 [Compound 10bk] below 1 µM, do you know?
not met

In the record for Cc1cc(OCc2ccccc2C(F)(F)F)ccc1-c1onc(C(=O)O)c1-c1ccc(Cl)cc1 , is IC50 less than 1 µM?
not met

Is IC50 of Cc1cc(OCc2ccc3ccccc3n2)ccc1-c1onc(C(=O)O)c1-c1ccc(Cl)cc1 strictly below 1 µM?
not met
